- Target Or System: rat MASP1 (Rattus norvegicus (Rat), UniProt Q8CHN8)
- Sequence (Q8CHN8 other isoform, or with tags, fused parts or gaps): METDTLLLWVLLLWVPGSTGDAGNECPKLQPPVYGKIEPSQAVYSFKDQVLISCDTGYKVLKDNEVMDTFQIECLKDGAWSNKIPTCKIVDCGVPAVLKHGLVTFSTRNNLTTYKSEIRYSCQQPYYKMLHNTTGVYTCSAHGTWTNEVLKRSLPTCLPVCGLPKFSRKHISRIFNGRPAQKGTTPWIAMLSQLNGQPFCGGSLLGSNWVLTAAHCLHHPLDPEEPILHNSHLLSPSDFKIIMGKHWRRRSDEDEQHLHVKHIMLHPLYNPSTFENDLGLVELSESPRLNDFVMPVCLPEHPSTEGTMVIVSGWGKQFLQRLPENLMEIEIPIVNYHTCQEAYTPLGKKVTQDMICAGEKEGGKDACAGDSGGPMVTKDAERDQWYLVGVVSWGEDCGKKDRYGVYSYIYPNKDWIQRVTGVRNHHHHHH
- Protocol Details: Biochemical rat MASP1 assay (FRET substrate)
- Test Settings: Average IC50; recombinant rat MASP1; read-out: rat MASP1 IC50
Where a SMILES comes first, the peptide text is derived from it. Bridges are numbered along the chain shown (N, C = ends). [ ]: non-standard residue; d: D form. tBuAla = CC(C)(C)C[C@H](N)C(=O)O; Pen = CC(C)(S)[C@H](N)C(=O)O; Ahx = NCCCCCC(=O)O
Parameter Measured: pIC50
The quantity pIC50 is defined as the negative base-10 logarithm of the molar concentration.

Some solved cases for reference:
CC[C@H](C)[C@@H]1NC(=O)[C@H](C)NC(=O)CCCCCNC(=O)[C@@H]2CCCN2C(=O)[C@H]([C@@H](C)CC)NC(=O)[C@H]2NC(=O)[C@H]([C@@H](C)CC)NC(=O)[C@@H]3CCCN3C(=O)[C@@H]3CCCN3C(=O)[C@H](CC(C)(C)C)NC(=O)[C@H](CO)NC(=O)[C@H](CCCNC(=N)N)NC(=O)[C@H](CO)NC(=O)[C@H](CSSC2(C)C)NC1=O [Example 53] (cyclo(AICSRS[tBuAla]PPI[Pen]IP[Ahx]); disulfide 3-11): 7.02
CC[C@H](C)[C@@H]1NC(=O)CN(C)C(=O)CCCCCNC(=O)[C@@H]2CCCN2C(=O)[C@H]([C@@H](C)CC)NC(=O)[C@H]2NC(=O)[C@H]([C@@H](C)CC)NC(=O)[C@@H]3CCCN3C(=O)[C@@H]3CCCN3C(=O)[C@H](CC(C)(C)C)NC(=O)[C@H](CO)NC(=O)[C@H](CCCNC(=N)N)NC(=O)[C@H](CO)NC(=O)[C@H](CSSC2(C)C)NC1=O [Example 54]: 6.74

Then there is this molecule:
Which pIC50 reading was recorded for the molecule CC[C@H](C)[C@@H]1NC(=O)CCCCCNC(=O)[C@H]([C@@H](C)CC)NC(=O)[C@H]2NC(=O)[C@H]([C@@H](C)CC)NC(=O)[C@@H]3CCCN3C(=O)[C@@H]3CCCN3C(=O)[C@H](CC(C)(C)C)NC(=O)[C@H](CO)NC(=O)[C@H](CCCNC(=N)N)NC(=O)[C@H](CO)NC(=O)[C@H](CSSC2(C)C)NC1=O [Example 52] (cyclo([Ahx]ICSRS[tBuAla]PPI[Pen]I); disulfide 3-11) ? 7.10
